Experiment: Hemolytic activity against mouse RBC measured after 1 hr by microplate reader analysis
Type: ADME, cell-based, Erythrocyte
Conditions: mouse red blood cells (erythrocytes)
quantity: HC50 at 1 h

Would you please look over these solved cases?
{"columns": ["smiles_structure", "HC50 at 1 h"],
 "data": [
  ["CCCCCCCCCC(=O)N[C@@H](CCCCN)CNCC(=O)Nc1ccc(NC(=O)CNC[C@H](CCCCN)NC(=O)CCCCCCCCC)cc1", "> 250 µg/mL"],
  ["CCCCCCCCCC(=O)N[C@@H](Cc1ccccc1)CN1CC(=O)N(c2ccc(N3CN(C[C@H](Cc4ccccc4)NC(=O)CCCCCCCCC)CC3=O)cc2)C1", "> 250 µg/mL"],
  ["CCCCCCCCCC(=O)N[C@@H](CCCCN)CN1CC(=O)N(c2ccc(N3CN(C[C@H](CCCCN)NC(=O)CCCCCCCCC)CC3=O)cc2)C1", "> 250 µg/mL"],
  ["N=C(N)NCCCC[C@@H](CN1CC(=O)N(c2ccc(N3CN(C[C@H](CCCCNC(=N)N)NC(=O)CC45C[C@H]6C[C@@H](C4)C[C@@H](C5)C6)CC3=O)cc2)C1)NC(=O)CC12C[C@H]3C[C@@H](C1)C[C@@H](C2)C3", "250 µg/mL"],
  ["CCCCCCCCCC(=O)N[C@@H](CCCCNC(=N)N)CN1CC(=O)N(c2ccc(N3CN(C[C@H](CCCCNC(=N)N)NC(=O)CCCCCCCCC)CC3=O)cc2)C1", "125 µg/mL"],
  ["NCCCC(=O)N[C@@H](Cc1ccccc1)CN1CC(=O)N(c2ccc(N3CN(C[C@H](Cc4ccccc4)NC(=O)CCCN)CC3=O)cc2)C1", "> 250 µg/mL"],
  ["CCCCCCCCCCCCCCCC(=O)N[C@@H](CCCCN)CN1CC(=O)N(c2ccc(N3CN(C[C@H](CCCCN)NC(=O)CCCCCCCCCCCCCCC)CC3=O)cc2)C1", "> 250 µg/mL"],
  ["CCCCCCCC(=O)N[C@@H](CCCCN)CN1CC(=O)N(c2ccc(N3CN(C[C@H](CCCCN)NC(=O)CCCCCCC)CC3=O)cc2)C1", "> 250 µg/mL"],
  ["CCCCCC(=O)N[C@@H](CCCCN)CN1CC(=O)N(c2ccc(N3CN(C[C@H](CCCCN)NC(=O)CCCCC)CC3=O)cc2)C1", "> 250 µg/mL"],
  ["NCCCC[C@@H](CN1CC(=O)N(c2ccc(N3CN(C[C@H](CCCCN)NC(=O)CC45C[C@H]6C[C@@H](C4)C[C@@H](C5)C6)CC3=O)cc2)C1)NC(=O)CC12C[C@H]3C[C@@H](C1)C[C@@H](C2)C3", "> 250 µg/mL"]
]}

Request: Look up and state reported HC50 at 1 h for CCCCCCCCCCCC(=O)N[C@@H](CCCCN)CN1CC(=O)N(c2ccc(N3CN(C[C@H](CCCCN)NC(=O)CCCCCCCCCCC)CC3=O)cc2)C1
Result: > 250 µg/mL

Request: Tell me measured HC50 at 1 h for CCCCCCCCCCCCCC(=O)N[C@@H](CCCCN)CN1CC(=O)N(c2ccc(N3CN(C[C@H](CCCCN)NC(=O)CCCCCCCCCCCCC)CC3=O)cc2)C1 please.
Result: > 250 µg/mL

Request: Query HC50 at 1 h for NCCCC[C@@H](CN1CC(=O)N(c2ccc(N3CN(C[C@H](CCCCN)NC(=O)Cc4ccc5ccccc5c4)CC3=O)cc2)C1)NC(=O)Cc1ccc2ccccc2c1
Result: > 250 µg/mL
